These data points were gathered from patent US20220177587A1.

testedOn: huCTLA4 (Homo sapiens, UniProt P16410)
Sequence (P16410 36-223): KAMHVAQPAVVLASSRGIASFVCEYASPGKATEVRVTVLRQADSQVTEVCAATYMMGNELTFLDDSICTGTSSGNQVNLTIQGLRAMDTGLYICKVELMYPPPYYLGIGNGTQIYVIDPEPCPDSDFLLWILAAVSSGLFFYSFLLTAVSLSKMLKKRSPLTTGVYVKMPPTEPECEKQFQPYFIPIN
testProtocol: Flow binding to CHO cells stably expressing CTLA4
Set-up: huCTLA4 and huPD-L1, full-length mammalian surface expression constructs were generated; expressed in transfected cells; host or cells: CHO cells, lentiviral transduction, sorted to >98% purity
conditionSummary: Table E10; 33.3 nM; relative to CD80 WT IgV-Fc
endpointName: CTLA4 Fold change to WT CD80

Q27H/E35D/M47I (protein) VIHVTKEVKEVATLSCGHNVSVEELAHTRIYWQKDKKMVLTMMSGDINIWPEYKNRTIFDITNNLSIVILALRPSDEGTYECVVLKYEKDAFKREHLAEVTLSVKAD ... 14.4
H18Y/E35D (protein) VIHVTKEVKEVATLSCGYNVSVEELAQTRIYWQKDKKMVLTMMSGDMNIWPEYKNRTIFDITNNLSIVILALRPSDEGTYECVVLKYEKDAFKREHLAEVTLSVKAD ... 13.7
V22A/E35D/M47L/A71G (protein) VIHVTKEVKEVATLSCGHNVSAEELAQTRIYWQKDKKMVLTMMSGDLNIWPEYKNRTIFDITNNLSIVILGLRPSDEGTYECVVLKYEKDAFKREHLAEVTLSVKAD ... 11.4
E35D/M47V (protein) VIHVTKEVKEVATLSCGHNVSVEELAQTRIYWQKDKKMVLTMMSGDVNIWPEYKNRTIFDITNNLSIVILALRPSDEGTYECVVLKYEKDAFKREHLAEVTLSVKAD ... 10.9
